Tested on: Rattus norvegicus
Assay: In vivo triglyceride lowering activity when dosed as 0.01 % of the diet
Type: functional
I'd be grateful if you could share measured serum triglyceride level, percent of control for these entries.
Give bare numbers, in %.

Example compounds with recorded serum triglyceride level, percent of control:
CCCCCCCCCCCCCCCCNc1ccc(C(=O)OCC(=O)O)cc1 ... 76
CCCCCCCCCCCCCCCCNc1ccc(C(=O)NC(C)=O)cc1 ... 86
CCCCCCCCCCCCCCCCNc1ccc(CCC(=O)OCC)cc1 ... 96
CCCCCCCCCCCCCCCCNc1ccc(C(=O)CO)cc1 ... 89

Required: serum triglyceride level, percent of control, one value per compound below.
1. CCCCCCCCCCCCCCCCNc1ccc(C(=O)NNC(C)=O)cc1
2. CCCCCCCCCCCCCCCCNc1ccc(O)cc1

### Response
75
118

====

Tested on: Rattus norvegicus
Test: In vivo sterol lowering activity at dose of 0.10 % of the diet
Assay type: functional
I'd be grateful if you could share measured serum sterol level, percent of control for these entries.
One number for each entry, in %.

Example molecules with recorded serum sterol level, percent of control:
CCCCCCCCCCCCCCCCN(C=O)c1ccc(C(=O)O)cc1 ... 105
CCCCCCCCCCCCCCCCNc1ccc(C(=O)OCC(COC)OC)cc1 (stereo unspecified) ... 82
CCCCCCCCCCCCCCCCNc1ccc(C(=O)OCC)cc1F ... 105
CCCCCCCCCCCCCCCCNc1ccc(CCCC(=O)OCC)cc1 ... 99

In the following, a different molecule is considered.
### Prompt Consider the molecule shown here: "CCCCCCCCCCCCCCCCNc1ncc(C(=O)O)cn1" What is its recorded serum sterol level, percent of control?
### Response 114

====

System: Rattus norvegicus
Experiment: In vivo sterol lowering activity at dose of 0.10 % of the diet
Type: functional
Experimental Endpoint: serum sterol level, percent of control (%)
Numbers only, in %.

CCCCCCCCCCCCCCCCN(C(C)=O)c1ccc(C(=O)OCC(O)CO)cc1 (stereo unspecified) ... 106
CCCCCCCCCCCCCCCCNc1ccc(C(=O)O)c(O)c1 ... 108
CCCCCCCCCCCCCCCCNc1ccc(C(=O)OCC(C)(C)CO)cc1 ... 101
CCCCCCCCCCCCCCCCCCN(CC)c1ccc(C(=O)O)cc1 ... 108
CCCCCCCCCCCCCCCCNc1ccc(C(=O)OCC)c(C(=O)OCC)c1 ... 90
CCCCCCCCCCCCCCN(CC)c1ccc(C(=O)O)cc1 ... 88
CCCCCCCCCCCCCCCCNc1ccc(C(=O)OCC(CO)OC(C)=O)cc1 (stereo unspecified) ... 86

In the following, a different compound is considered.
### Prompt Consider the compound shown here: "CCCCCCCCCCCCCCCCNc1ccc(C(=O)N2CCCC2)cc1" What is its recorded serum sterol level, percent of control?
### Response 101

====

Molecular target: Sterol O-acyltransferase 1 (Rattus norvegicus)
Sequence (whole entry): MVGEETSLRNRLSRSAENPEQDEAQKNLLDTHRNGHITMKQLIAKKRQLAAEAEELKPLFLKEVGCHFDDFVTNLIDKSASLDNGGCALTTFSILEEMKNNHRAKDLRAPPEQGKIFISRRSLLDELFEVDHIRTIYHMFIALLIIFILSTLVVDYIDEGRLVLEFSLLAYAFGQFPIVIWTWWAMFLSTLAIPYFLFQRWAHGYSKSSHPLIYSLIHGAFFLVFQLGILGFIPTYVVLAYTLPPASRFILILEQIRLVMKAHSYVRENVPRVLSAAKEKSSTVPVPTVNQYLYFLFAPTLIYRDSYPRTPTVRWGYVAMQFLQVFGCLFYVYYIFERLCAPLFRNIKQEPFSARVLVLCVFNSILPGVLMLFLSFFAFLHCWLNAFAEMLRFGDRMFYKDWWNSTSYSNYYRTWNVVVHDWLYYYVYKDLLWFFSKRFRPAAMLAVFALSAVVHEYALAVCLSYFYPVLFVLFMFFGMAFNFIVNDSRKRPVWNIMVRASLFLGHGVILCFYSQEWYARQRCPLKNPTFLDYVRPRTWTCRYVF
Experiment: In vitro inhibition of acyl coenzyme A:cholesterol acyltransferase
Design: concentration or dose not given beside the values
Conditions: concentration not given here
I'd be grateful if you could share measured inhibition for these entries.
Give bare numbers, in %.

Example compounds with recorded inhibition:
CCCCCCCCCCCCCCCCNc1ccc(C(=O)OCC(COC(C)=O)OC(C)=O)cc1 (stereo unspecified) ... 22
CCCCCCCCCCCCCCCCNc1ccc(C(=O)CCC(=O)O)cc1 ... 16
CCCCCCCCCCCCCCCCNc1ccc(C(=O)NO)cc1 ... 9
CCCCCCCCCCCCCCCCNc1ccc(SCC(=O)OCC)cc1 ... 13
CCCCCCCCCCCCCCCCNc1ccc(-c2nn[nH]n2)cc1 ... 78
CCCCCCCCCCCCCCCCNc1ccc(C(C#N)O[Si](C)(C)C)cc1 (stereo unspecified) ... 0
CCCCCCCCCCCCCCCCNc1ccc(C(=O)OC2COC(c3ccccc3)OC2)cc1 (stereo unspecified) ... 0

In the following, a different compound is considered.
### Prompt Consider the compound shown here: "CCCCCCCCCCCCCCCCNc1ccc(C(=O)CCC(=O)OC)cc1" What is its recorded inhibition?
### Response 7
